src = paper PMC10133546

test: Stability of analytes in rat plasma (auto-sampler, freeze-thaw, room temperature, long-term); settings: 500 ng/mL, −80°C 1 month
measurement_label: −80°C for 1month Accuracy (%)

> print(dat)
                              sample.smiles              measurement.label  result.value
1  C[C@@H]1O[C@@H](Oc2c(-c3ccc(O)c(O)c3)oc3cc(O)cc(O)c3c2=O)[C@H](O)[C@H](O)[C@H]1O  −80°C for 1month Accuracy (%)          96.0
2                      O=C(O)c1ccc(O)c(O)c1  −80°C for 1month Accuracy (%)          91.2
3  COc1c2c(cc3oc(CO)cc(=O)c13)O[C@H](C(C)(C)O)C2  −80°C for 1month Accuracy (%)          95.2
4  O=c1cc(-c2ccc(O)cc2)oc2c([C@@H]3O[C@H](CO)[C@@H](O)[C@H](O)[C@H]3O)c(O)cc(O)c12  −80°C for 1month Accuracy (%)          92.6
5                  COc1cc(/C=C/C(=O)O)ccc1O  −80°C for 1month Accuracy (%)         107.0

###

assay: Stability of analytes in rat plasma (auto-sampler, freeze-thaw, room temperature, long-term); settings: 12.5 ng/mL, three freeze-thaw cycles
// reported Freeze thaw cycles Accuracy (%) per item

molecule	units_of_measure	Freeze thaw cycles Accuracy (%)
CC(C)=CCC[C@](C)(O)[C@H]1CC[C@]2(C)[C@@H]1[C@H](O)C[C@@H]1[C@@]3(C)CC[C@H](O)C(C)(C)[C@@H]3[C@@H](O[C@@H]3O[C@H](CO)[C@@H](O)[C@H](O)[C@H]3O[C@@H]3O[C@H](CO)[C@@H](O)[C@H](O)[C@H]3O)C[C@]12C [ginsenoside Rf]	%	97.2
COc1ccc(-c2coc3cc(O[C@@H]4O[C@H](CO)[C@@H](O)[C@H](O)[C@H]4O)ccc3c2=O)cc1	%	108.0
O=C(/C=C/c1ccc(O)c(O)c1)O[C@@H]1C[C@](O)(C(=O)O)C[C@@H](O)[C@H]1O	%	100.0
COc1c2c(cc3oc(CO)cc(=O)c13)O[C@H](C(C)(C)O)C2	%	92.0
COc1ccc([C@@H]2CC(=O)c3c(O)cc(O[C@@H]4O[C@H](CO[C@@H]5O[C@@H](C)[C@H](O)[C@@H](O)[C@H]5O)[C@@H](O)[C@H](O)[C@H]4O)cc3O2)cc1O	%	94.3
O=c1cc(-c2ccccc2)oc2cc(O)c(O)c(O)c12	%	97.4

###

test: Pharmacokinetic study in rat plasma after oral administration of QJYQ (UHPLC-sMRM); type: in vivo, Sprague-Dawley rats; conditions: rat, in vivo, po, 3.15 g/kg
// reported Cmax per item
measurement_label: Cmax (ng/mL)

> print(dat)
                                   compound  result.value
1  COc1c(O[C@@H]2O[C@H](C(=O)O)[C@@H](O)[C@H](O)[C@H]2O)cc(O)c2c(=O)cc(-c3ccccc3)oc12 [wogonoside]       5052.10
2  COc1cc(/C=C/C(=O)O)cc(OC)c1O [sinapic acid]         26.77
3  COC(=O)C1=CO[C@@H](O[C@@H]2O[C@H](CO)[C@@H](O)[C@H](O)[C@H]2O)[C@H]2[C@@H]1C(=O)C[C@@H]2C [verbenalin]        135.83
4  O=C(O)[C@H]1O[C@@H](Oc2cc(O)c3c(=O)cc(-c4ccc(O)cc4)oc3c2)[C@H](O)[C@@H](O)[C@@H]1O [apigenin-7-O-glucuronide]        167.50

###

assay: Stability of the working solution (4°C for 1 month); assay type: physicochemical; conditions: 12.5 ng/mL
measurement_label: Working solution Accuracy (%)

compound	result_value
O=c1c(O[C@@H]2O[C@H](CO)[C@H](O)[C@H](O)[C@H]2O)c(-c2ccc(O)c(O)c2)oc2cc(O)cc(O)c12 [hyperoside]	92.1%
O=C1C[C@@H](c2ccc(O[C@@H]3O[C@H](CO)[C@@H](O)[C@H](O)[C@H]3O)cc2)Oc2cc(O)ccc21	94.1%
COc1c2c(cc3oc(CO)cc(=O)c13)O[C@H](C(C)(C)O)C2	100.0%
C[C@]1(OC(=O)/C=C/c2ccccc2)C[C@@H](O)[C@]2(O)C=CO[C@@H](O[C@@H]3O[C@H](CO)[C@@H](O)[C@H](O)[C@H]3O)[C@@H]21 [harpagoside]	105.0%
CC(C)=CCC[C@](C)(O)[C@H]1CC[C@]2(C)[C@@H]1[C@H](O)C[C@@H]1[C@@]3(C)CC[C@H](O)C(C)(C)[C@@H]3[C@@H](O[C@@H]3O[C@H](CO)[C@@H](O)[C@H](O)[C@H]3O[C@@H]3O[C@H](CO)[C@@H](O)[C@H](O)[C@H]3O)C[C@]12C [ginsenoside Rf]	91.9%
COc1cc(/C=C/C(=O)O)ccc1O	87.7%

###

experiment: Stability of analytes in rat plasma (auto-sampler, freeze-thaw, room temperature, long-term); conditions: 12.5 ng/mL, autosampler 24 h
measurement_label: Autosampler for 24 h Accuracy (%)

compound	measurement_label	result_value
COc1ccc(-c2coc3cc(O[C@@H]4O[C@H](CO)[C@@H](O)[C@H](O)[C@H]4O)ccc3c2=O)cc1 [ononin]	Autosampler for 24 h Accuracy (%)	95.3
O=c1cc(-c2ccc(O)cc2)oc2c([C@@H]3O[C@H](CO)[C@@H](O)[C@H](O)[C@H]3O)c(O)cc(O)c12 [vitexin]	Autosampler for 24 h Accuracy (%)	93.5
COc1ccc([C@@H]2CC(=O)c3c(O)cc(O[C@@H]4O[C@H](CO[C@@H]5O[C@@H](C)[C@H](O)[C@@H](O)[C@H]5O)[C@@H](O)[C@H](O)[C@H]4O)cc3O2)cc1O [hesperidin]	Autosampler for 24 h Accuracy (%)	82.1

###

assay: Stability of analytes in rat plasma (auto-sampler, freeze-thaw, room temperature, long-term); details: 12.5 ng/mL, room temperature 24 h
measurement_label: Room temperature for 24 h Accuracy (%)

molecule	measurement_label	result_value
O=C(/C=C/c1ccc(O)c(O)c1)O[C@@H]1C[C@](O)(C(=O)O)C[C@@H](O)[C@H]1O	Room temperature for 24 h Accuracy (%)	97.3%
O=C(O)[C@H]1O[C@@H](Oc2cc(O)c3c(=O)cc(-c4ccc(O)cc4)oc3c2)[C@H](O)[C@@H](O)[C@@H]1O [apigenin-7-O-glucuronide]	Room temperature for 24 h Accuracy (%)	92.2%
COC(=O)C1=CO[C@@H](O[C@@H]2O[C@H](CO)[C@@H](O)[C@H](O)[C@H]2O)[C@H]2[C@@H]1C(=O)C[C@@H]2C	Room temperature for 24 h Accuracy (%)	104.0%
O=c1cc(-c2ccccc2)oc2cc(O)c(O)c(O)c12	Room temperature for 24 h Accuracy (%)	91.4%
CC(C)=CCC[C@](C)(O)[C@H]1CC[C@]2(C)[C@@H]1[C@H](O)C[C@@H]1[C@@]3(C)CC[C@H](O)C(C)(C)[C@@H]3[C@@H](O[C@@H]3O[C@H](CO)[C@@H](O)[C@H](O)[C@H]3O[C@@H]3O[C@H](CO)[C@@H](O)[C@H](O)[C@H]3O)C[C@]12C [ginsenoside Rf]	Room temperature for 24 h Accuracy (%)	96.1%
O=C(O)c1ccc(O)c(O)c1	Room temperature for 24 h Accuracy (%)	91.0%
O=C(/C=C/c1ccc(O[C@@H]2O[C@H](CO)[C@@H](O)[C@H](O)[C@H]2O)cc1)c1ccc(O)cc1O	Room temperature for 24 h Accuracy (%)	87.5%
C[C@@]12C[C@@]3(O)O[C@@H](O1)[C@]1(COC(=O)c4ccccc4)[C@H]3C[C@@]12O[C@@H]1O[C@H](CO)[C@@H](O)[C@H](O)[C@H]1O	Room temperature for 24 h Accuracy (%)	106.0%
COc1ccc([C@@H]2CC(=O)c3c(O)cc(O[C@@H]4O[C@H](CO[C@@H]5O[C@@H](C)[C@H](O)[C@@H](O)[C@H]5O)[C@@H](O)[C@H](O)[C@H]4O)cc3O2)cc1O	Room temperature for 24 h Accuracy (%)	84.1%
O=C1C[C@@H](c2ccc(O)cc2)Oc2cc(O)cc(O)c21	Room temperature for 24 h Accuracy (%)	94.4%
C[C@]1(OC(=O)/C=C/c2ccccc2)C[C@@H](O)[C@]2(O)C=CO[C@@H](O[C@@H]3O[C@H](CO)[C@@H](O)[C@H](O)[C@H]3O)[C@@H]21 [harpagoside]	Room temperature for 24 h Accuracy (%)	108.0%
O=C(/C=C/c1ccc(O)c(O)c1)O[C@H]1[C@H](O)C[C@](O)(C(=O)O)C[C@H]1O	Room temperature for 24 h Accuracy (%)	90.6%
COc1cc(/C=C/C(=O)O)ccc1O	Room temperature for 24 h Accuracy (%)	104.0%
